B1: HEEH_KT_rd6_3546 (parent)
chain: SEEDKEREHWERLNRDFELRVLDTTFIAHHAEEVIKLLRWLEK

# Variants of: B1
# experiment.summary: folding stability dG (cDNA display proteolysis); higher = more stable
# test.context: PBS, room temperature
experimental.endpoint: folding stability dG (kcal/mol)
Report the value in kcal/mol with no unit label.

Worked cases, answers included:
mutant: E18N
folding stability dG, kcal/mol: 1.5

mutant: K5L
folding stability dG, kcal/mol: 1.15

mutant: N14G
folding stability dG, kcal/mol: 1.55

mutant: T24Y
folding stability dG, kcal/mol: 1.79

mutant: E6I
folding stability dG, kcal/mol: 1.62

Memo: D4K , reported folding stability dG: 1.41

Memo: E8H , reported folding stability dG: 1.15

Memo: L22K , reported folding stability dG: 0.899

Memo: R39F , reported folding stability dG: 1.7

Memo: N14E , reported folding stability dG: 1.2

Memo: E42H , reported folding stability dG: 1.63

Memo: E18T , reported folding stability dG: 2.19

Memo: I35K , reported folding stability dG: 0.927

Memo: F17S , reported folding stability dG: 0.873

Memo: E2G , reported folding stability dG: 1.57

Memo: L22G , reported folding stability dG: 1.48

Memo: N14T , reported folding stability dG: 1.8

Memo: S1F , reported folding stability dG: 1.13

Memo: T25N , reported folding stability dG: 1.26

Memo: A31V , reported folding stability dG: 2.1
